pKd: recorded values
- experimental system: T1, TX1BP3, O14907
- T1 sequence (O14907 10-122, limits assumed, looked up): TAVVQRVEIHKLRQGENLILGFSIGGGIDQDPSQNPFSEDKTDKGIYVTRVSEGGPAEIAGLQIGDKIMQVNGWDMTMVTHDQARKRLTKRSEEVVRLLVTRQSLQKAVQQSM
- protocol summary: holdup assay
- Parameters: key: below the threshold = too weak to quantify, mostly under pKd 3.1 to 4
- measurement parameters: plain residues with an end cap or a label only (N-terminal biotin on a linker: ado-ado)
When you answer, write just the number.

Example results:
1. KRPEMTSSSV [MUC3B, MUC3A, Q02505;Q9H195] :: 4.5
2. RQKEVRESKC [SCN8A, Q9UQD0] :: 3.96
3. KKMLQRRTLL [OR8G1, Q15617] :: 3.76
4. NIAESLESLV [PTPRZ1, P23471] :: 4.26
5. PPGKHLVTEV [KCNA7, Q96RP8] :: 4.67
6. LPAVCYDIDI [PTTG2, Q9NZH5] :: 4.09

input: For the binder DTKNYKQTSV [CRIPT, Q9P021] , what pKd is on record?
output: 5.4

input: Ok, now QLSFNTDTLC [ABCA2, Q9BZC7]
output: 4.04

Where do the numbers come from? From paper PMC9482650.
